# target.of.assay: Human PD-L1/PD-1 (Homo sapiens, UniProt Q9NZQ7)
# Construct: TVMV protease cleavage site (C); made in house; host or cells: HEK293T cells
# Sequence (Q9NZQ7 with tags, fused parts or gaps): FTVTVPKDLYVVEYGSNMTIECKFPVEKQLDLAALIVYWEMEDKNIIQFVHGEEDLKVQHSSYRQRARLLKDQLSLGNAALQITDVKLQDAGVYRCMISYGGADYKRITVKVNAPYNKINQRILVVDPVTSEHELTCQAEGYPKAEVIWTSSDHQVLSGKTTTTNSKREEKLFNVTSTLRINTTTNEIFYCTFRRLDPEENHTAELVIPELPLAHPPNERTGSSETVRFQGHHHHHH
# procedure.text: HTRF Human PD-L1/PD-1 binding assay (PD-1-Ig/PD-L1-His)
# condition.details: PD-L1-His 10 nM, PD-1-Ig 20 nM; class symbol; read-out: HTRF Human PD-L1/PD-1 Binding Assay IC50 Range
pIC50: −log10 of the molar value. Where a SMILES comes first, the peptide text is derived from it. Bridges are numbered along the chain shown (N, C = ends). [ ]: non-standard residue; d: D form. ξ: configuration not given here. Hyp = O=C(O)[C@@H]1C[C@@H](O)CN1; NMeF = CN[C@@H](Cc1ccccc1)C(=O)O; αMeF = C[C@](N)(Cc1ccccc1)C(=O)O; NMeNle = CCCC[C@H](NC)C(=O)O; Pip = O=C(O)[C@@H]1CCCCN1; dPip = O=C(O)[C@H]1CCCCN1; hSer = N[C@@H](CCO)C(=O)O; NMeA = CN[C@@H](C)C(=O)O; dThz = O=C(O)[C@H]1CSCN1; Dap = NC[C@H](N)C(=O)O; ξC = NC(CS)C(=O)O
quantity.measured: pIC50

These solved cases illustrate the format of a correct answer.
compound | pIC50
CCCC[C@H]1C(=O)N2CCC[C@@H]2C(=O)N[C@@H](CC(=O)O)C(=O)N[C@@H](C(C)C)C(=O)N[C@@](C)(Cc2ccccc2)C(=O)N[C@@H](Cc2ccc(O)cc2)C(=O)N2CCCC[C@@H]2C(=O)N[C@@H](Cc2c[nH]c3ccccc23)C(=O)N[C@@H](Cc2ccc(O)cc2)C(=O)N[C@@H](CC(C)C)C(=O)N[C@H](C(=O)NCC(N)=O)CSCC(=O)N[C@@H](Cc2ccccc2)C(=O)N(C)[C@@H](Cc2ccccc2)C(=O)N1C [Example 3220] ({CH2CO}-F[NMeF][NMeNle][dP]DV[αMeF]Y[dPip]WYLCG-NH2; thioether N-13) | 7.00 to 8.00
CCCC[C@H]1C(=O)N2CSC[C@@H]2C(=O)N[C@@H](CC(=O)O)C(=O)N[C@@H](C)C(=O)N(C)[C@@H](Cc2ccccc2)C(=O)N[C@@H](Cc2ccc(O)cc2)C(=O)N2CSC[C@@H]2C(=O)N[C@@H](Cc2c[nH]c3ccccc23)C(=O)N[C@@H](Cc2ccc(O)cc2)C(=O)N[C@@H](CC(C)C)C(=O)N[C@H](C(=O)NCC(N)=O)CSCC(=O)N[C@@H](Cc2ccccc2)C(=O)N(C)[C@@H](Cc2ccccc2)C(=O)N1C [Example 10078] ({CH2CO}-F[NMeF][NMeNle][dThz]DA[NMeF]Y[dThz]WYLCG-NH2; thioether N-13) | 7.00 to 8.00
CCCC[C@H]1C(=O)N(C)[C@@H](CCCC)C(=O)N[C@@H](C)C(=O)N[C@H](C(=O)NCC(N)=O)CSCC(=O)N[C@@H](Cc2ccc(O)cc2)C(=O)N2CCCC[C@H]2C(=O)N[C@@H](CC(=O)O)C(=O)N2CCC[C@H]2C(=O)N[C@@H](CN)C(=O)N[C@@H](CCC(=O)O)C(=O)N2C[C@H](O)C[C@H]2C(=O)N[C@@H](Cc2c[nH]c3ccccc23)C(=O)N[C@@H](CO)C(=O)N[C@@H](Cc2c[nH]c3ccccc23)C(=O)N1C [Example 1258] ({CH2CO}-Y[Pip]DP[Dap]E[Hyp]WSW[NMeNle][NMeNle]ACG-NH2; thioether N-14) | 8.00 to 9.00

# context switch: different compound, same pIC50
Problem: Input CCCC[C@H]1C(=O)N[C@@H](CC(N)=O)C(=O)N2CCC[C@H]2C(=O)N[C@@H](CO)C(=O)N[C@@H](CCO)C(=O)N2CCC[C@H]2C(=O)N[C@@H](Cc2c[nH]c3ccccc23)C(=O)N[C@@H](CN)C(=O)N[C@@H](Cc2c[nH]c3ccccc23)C(=O)N(C)[C@@H](C)C(=O)N(C)[C@@H](C)C(=O)N[C@@H](CCCNC(=N)N)C(=O)NC(C(=O)NCC(N)=O)CSCC(=O)N[C@@H](Cc2ccc(O)cc2)C(=O)N1C (stereo partly shown) [Example 10202] ({CH2CO}-Y[NMeNle]NPS[hSer]PW[Dap]W[NMeA][NMeA]R[ξC]G-NH2; thioether N-14) , output reported pIC50.
Solution: 5.00 to 6.00
